Assay: Cellular viability qHTS for adrenocortical cancer (ACC) cell line NCI-H295R (AID 1963990); note: nearly all actives have a fitted effect of over 60% in size
Conditions: CellTiter-Glo ATP luminescence, 48 h; series mostly up to 46.1 µM
Inconclusive results are not listed. Active and inactive are the calls of the source. Calls come from the whole dose curve; as a rule, active = well fitted cell-killing curve with a large enough effect; inconclusive = small, poorly fitted or top-dose-only effect; inactive = flat fitted curve, though single readings scatter.
Form entry, call: pick from active, inactive

Below, 3 compounds whose answers are already recorded.
* Cc1c(CN2CCN(C(=O)[C@H](C)O)CC2)sc2c(N3CCOCC3)nc(-c3cnc(N)nc3)nc12 | active
* CC(NN)c1ccccc1 (centres undefined) | inactive
* CCN(CC)CCCC(C)Nc1ccnc2cc(Cl)ccc12 (centres undefined) | inactive

Please find the next compound below.
Entry CC[C@]12C=CCN3CC[C@@]4(c5cc([C@@]6(C(=O)OC)CC7C[C@@H](C(C)(F)F)CN(Cc8c6[nH]c6ccccc86)C7)c(OC)cc5N(C)[C@H]4[C@@](O)(C(=O)OC)[C@@H]1OC(C)=O)[C@@H]32 (some centres undefined) : call = ? active
